# Test system: Shigella flexneri
# METHOD NOTES: Antibacterial activity against Shigella flexneri assessed as concentration required to obtain a zone of inhibition of 20 mm after 18 to 24 hr by disk diffusion method
# Type: functional
Provide the reported Activity of each item.
Give bare numbers, in µg/mL.

Worked examples follow.
>>> readout_number("COc1c(N2CCN(C(C)=O)C(C)C2)c(F)cc2c(=O)c(C(=O)O)cn(C3CC3)c12.O (stereo unspecified)")
24
>>> readout_number("COc1c(N2CCN(C(=O)c3ccccc3)C(C)C2)c(F)cc2c(=O)c(C(=O)O)cn(C3CC3)c12.O (stereo unspecified)")
14
>>> readout_number("COc1c(N2CCNC(C)C2)c(F)cc2c(=O)c(C(=O)O)cn(C3CC3)c12 (stereo unspecified)")
23
>>> readout_number("CCCCCCCC(=O)N1CCN(c2c(F)cc3c(=O)c(C(=O)O)cn(C4CC4)c3c2OC)CC1C.O (stereo unspecified)")
20
>>> readout_number("CO/N=C1\\CN(c2nc3c(cc2F)c(=O)c(C(=O)O)cn3C2CC2)CC1CN.CS(=O)(=O)O (stereo unspecified) [GEMIFLOXACIN MESYLATE]")
13

Query: Under Shigella flexneri: Activity value of `C[C@@H]1CN(c2c(F)c(N)c3c(=O)c(C(=O)O)cn(C4CC4)c3c2F)C[C@H](C)N1` ?
Result: 13

----------
# Test system: Pseudomonas aeruginosa
# METHOD NOTES: Antibacterial activity against Pseudomonas aeruginosa assessed as concentration required to obtain a zone of inhibition of 5 mm after 18 to 24 hr by disk diffusion method
# Assay type: functional
Provide the reported Activity of each item.
Answers are plain numbers, in µg/mL.

Worked examples follow.
>>> readout_number("COc1c(N2CCN(C(C)=O)C(C)C2)c(F)cc2c(=O)c(C(=O)O)cn(C3CC3)c12.O (stereo unspecified)")
11
>>> readout_number("COc1c(N2CCNC(C)C2)c(F)cc2c(=O)c(C(=O)O)cn(C3CC3)c12 (stereo unspecified)")
8

Give Activity for all molecules that follow.
1. CO/N=C1\CN(c2nc3c(cc2F)c(=O)c(C(=O)O)cn3C2CC2)CC1CN.CS(=O)(=O)O (stereo unspecified) [GEMIFLOXACIN MESYLATE]
2. COc1c(N2CCN(C(=O)c3ccccc3)C(C)C2)c(F)cc2c(=O)c(C(=O)O)cn(C3CC3)c12.O (stereo unspecified)
3. CCCCCCCC(=O)N1CCN(c2c(F)cc3c(=O)c(C(=O)O)cn(C4CC4)c3c2OC)CC1C.O (stereo unspecified)
4. C[C@@H]1CN(c2c(F)c(N)c3c(=O)c(C(=O)O)cn(C4CC4)c3c2F)C[C@H](C)N1

Result:
1: 8; 2: 10; 3: 8; 4: 11

----------
# System: Citrobacter
# METHOD NOTES: Antibacterial activity against Citrobacter assessed as zone of inhibition at 5 to 40 ug/ml after 18 to 24 hr by disk diffusion method relative to gatifloxacin
# Assay type: functional
Provide the reported inhibition zone (IZ) of each item.
Give bare numbers, in %.

Worked examples follow.
>>> readout_number("CO/N=C1\\CN(c2nc3c(cc2F)c(=O)c(C(=O)O)cn3C2CC2)CC1CN.CS(=O)(=O)O (stereo not given) [GEMIFLOXACIN MESYLATE]")
42.83
>>> readout_number("C[C@@H]1CN(c2c(F)c(N)c3c(=O)c(C(=O)O)cn(C4CC4)c3c2F)C[C@H](C)N1")
42.73
>>> readout_number("COc1c(N2CCN(C(C)=O)C(C)C2)c(F)cc2c(=O)c(C(=O)O)cn(C3CC3)c12.O (stereo not given)")
98.9
>>> readout_number("CCCCCCCC(=O)N1CCN(c2c(F)cc3c(=O)c(C(=O)O)cn(C4CC4)c3c2OC)CC1C.O (stereo not given)")
51.5

Query: If you can, please state the reported inhibition zone (IZ) value of COc1c(N2CCN(C(=O)c3ccccc3)C(C)C2)c(F)cc2c(=O)c(C(=O)O)cn(C3CC3)c12.O (stereo not given) .
Result: 47.6
